assay: qHTS assay to identify small molecule agonists of the RXR signaling pathway - cell viability counter screen (AID 1159529); conditions: RXR-alpha-bla HEK293T viability, CellTiter-Glo, 16 h; series mostly up to 76.8 µM; also: nearly all actives have a fitted effect of over 50% in size; also: potency is read from the fitted curve at half-maximal effect
Records with an inconclusive call do not appear. Activity calls are given as the source filed them. Calls follow the shape of the dose curve; as a rule, active = well fitted cell-killing curve with a large enough effect in the repeat runs; inconclusive = weak or mixed curves, or effect the other way; inactive = no such curve, though single readings can be large or run the other way.
ASSAY ENDPOINT: Potency

Worked examples, 5 compounds total:
| COMPOUND | Potency |
| --- | --- |
| C=CCC1=C(C)C(OC(=O)C2C(C=C(C)C)C2(C)C)CC1=O (stereo not given) | 58.3 µM (active) |
| Nc1ccc(Cl)cc1C(=O)c1ccccc1 | inactive |
| CCOP(=S)(OCC)SCCS(=O)(=O)CC | inactive |
| Cc1cc(SCc2sc(-c3ccc(C(F)(F)F)c(F)c3)nc2C)ccc1OCC(=O)O | 19.5 µM (active) |
| Clc1ccc(C(Cl)(Cl)Cl)c(Cl)c1 | 19.6 µM (active) |

Inquiry: Quick one: Potency for COC(=O)N(C(=O)N1CO[C@@]2(C(=O)OC)Cc3cc(Cl)ccc3C2=N1)c1ccc(OC(F)(F)F)cc1 ?
Reply text: inactive

Inquiry: Now give it for COC12CC[C@@]3(C[C@@H]1C(C)(O)C(C)(C)C)[C@H]1Cc4ccc(O)c5c4[C@@]3(CCN1CC1CC1)[C@H]2O5 (stereo not given in full) too.
Reply text: 21.7 µM (active)

Inquiry: Then what about the compound CC(C)[C@H](C(=O)O[C@H](C#N)c1cccc(Oc2ccccc2)c1)c1ccc(Cl)cc1 ?
Reply text: inactive

Inquiry: Here is the next compound: Oc1ccc(C2(c3ccc(O)cc3)CCCCC2)cc1
Reply text: 36.8 µM (active)

Inquiry: Same again, this time with CC(=O)Nc1ccc2c(c1)Cc1ccccc1-2
Reply text: inactive
